experiment-description: In vivo pharmacokinetic test in rats
Set-up: species or system Wistar rats
assay-context: male, Wistar, rat, in vivo, iv, 5 mg/kg
Structures can show the parent of a compound that is named as a salt.
parameter-measured: Vd (L/kg)
State just the number; it will be interpreted in L/kg.

query: Find the recorded Vd belonging to COCCCOc1ccnc(C[S@@+]([O-])c2nc3cc4c(cc3[nH]2)OCC4)c1C [Compound 30 (sodium salt)] and report it.
result: 0.394

###

experiment-description: In vivo pharmacokinetic test in rats
Design: species or system Wistar rats
assay-context: male, Wistar, rat, plasma, po; rats, P.O, 5 mg/kg; read-out: Cmax
Where a name gives a salt, the structure may show the parent alone.
parameter-measured: Cmax (ng/mL)
State just the number; it will be interpreted in ng/mL.

query: Find the recorded Cmax belonging to COCCCOc1ccnc(C[S+]([O-])c2nc3cc4c(cc3[nH]2)OCC4)c1C (stereo not shown) [Compound 1 (sodium salt)] and report it.
result: 1860

###

experiment-description: In vivo pharmacokinetic test in rats
Parameters: species or system Wistar rats
assay-context: male, Wistar, rat, in vivo, iv; rats, I.V, 5 mg/kg; read-out: T½ (converted)
parameter-measured: half-life

query: Find the recorded half-life belonging to COCCCOc1ccnc(C[S@+]([O-])c2nc3cc4c(cc3[nH]2)OCC4)c1C [Compound 29] and report it.
result: 13.4 min

###

experiment-description: In vivo pharmacokinetic test in rats
Set-up: species or system Wistar rats
assay-context: male, Wistar, rat, in vivo, po, 5 mg/kg
Description: Experimental animals: male Wistar rats, 6 rats/compound, body weight 180-220 g, purchased from Shandong University, certificate no.: SCXK ( ? ) 20090001. […] Analysis of plasma samples: as for Compound 1, Compound 29, Compound 30, 50 μL of plasma was taken, added with 120 μL internal standard solution (Tolbutamide, 5 ng/mL MeOH solution), subjected to 1500 rpm vortex for 2 min, then centrifuged at 14000 rpm for 5 min, the supernatant was collected, and analyzed by using LC-MS/MS. […]
Counter-ions that a name gives are not always drawn.
parameter-measured: bioavailability (%)
State just the number; it will be interpreted in %.

query: Find the recorded bioavailability belonging to COCCCOc1ccnc(C[S@@+]([O-])c2nc3cc4c(cc3[nH]2)OCC4)c1C [Compound 30 (sodium salt)] and report it.
result: 39.3

###

experiment-description: In vivo pharmacokinetic test in rats
Set-up: species or system Wistar rats
assay-context: male, Wistar, rat, plasma, po; rats, P.O, 5 mg/kg; read-out: Tmax
Structures can show the parent of a compound that is named as a salt.
parameter-measured: Tmax

query: Find the recorded Tmax belonging to COCCCOc1ccnc(C[S+]([O-])c2nc3cc4c(cc3[nH]2)OCC4)c1C (stereo not shown) [Compound 1 (sodium salt)] and report it.
result: 4.98 to 15 min

###

experiment-description: In vivo pharmacokinetic test in rats
Design: species or system Wistar rats
assay-context: male, Wistar, rat, in vivo, po, 5 mg/kg
Where a name gives a salt, the structure may show the parent alone.
parameter-measured: AUC(0-inf) (µg·h/mL)
State just the number; it will be interpreted in µg·h/mL.

query: Find the recorded AUC(0-inf) belonging to COCCCOc1ccnc(C[S@@+]([O-])c2nc3cc4c(cc3[nH]2)OCC4)c1C [Compound 30 (sodium salt)] and report it.
result: 1.26
